The binders listed here are annotated with their Mean Cells/Field, Assay 6 (UMR106 migration, antibody 100 ug/mL, MK-17 20 µg/mL).
Target: T1, recombinant human midkine (huMK) (human, UniProt P21741 21-143)
T1 sequence (looked up): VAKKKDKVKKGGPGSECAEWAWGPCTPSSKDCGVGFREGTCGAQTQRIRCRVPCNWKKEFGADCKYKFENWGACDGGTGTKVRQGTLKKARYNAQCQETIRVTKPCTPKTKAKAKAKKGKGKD
Assay: cell-based or functional assay
// units = cells/field; emit number, no label

// worked examples, Mean Cells/Field, Assay 6 (UMR106 migration, antibody 100 ug/mL, MK-17 20 µg/mL) included
BINDER	DATA VALUE
murine IP14 precursor antibody (antibody, V domains shown, Murine monoclonal antibody; also called mIP14; mAb IP14) VH: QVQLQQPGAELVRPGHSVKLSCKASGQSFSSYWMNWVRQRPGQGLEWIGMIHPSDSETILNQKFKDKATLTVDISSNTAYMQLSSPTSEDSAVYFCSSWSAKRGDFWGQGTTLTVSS VL: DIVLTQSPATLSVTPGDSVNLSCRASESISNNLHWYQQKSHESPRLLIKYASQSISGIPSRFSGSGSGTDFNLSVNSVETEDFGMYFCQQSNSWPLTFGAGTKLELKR	26
IP14-H5L8 (antibody, V domains shown, also called hIP14-H5L8; Hv5 Lv8) VH: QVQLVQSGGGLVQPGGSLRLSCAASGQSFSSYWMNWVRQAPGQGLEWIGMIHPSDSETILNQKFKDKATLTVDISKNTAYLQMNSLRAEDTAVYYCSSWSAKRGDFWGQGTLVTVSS VL: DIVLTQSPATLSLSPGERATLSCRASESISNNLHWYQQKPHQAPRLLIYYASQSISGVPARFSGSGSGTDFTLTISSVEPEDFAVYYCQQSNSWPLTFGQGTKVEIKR	29

Now let's try a different one.
Return reported Mean Cells/Field, Assay 6 (UMR106 migration, antibody 100 ug/mL, MK-17 20 µg/mL); argument: IP14-H6L8 (antibody, V domains shown, also called hIP14-H6L8; Hv6 Lv8) VH: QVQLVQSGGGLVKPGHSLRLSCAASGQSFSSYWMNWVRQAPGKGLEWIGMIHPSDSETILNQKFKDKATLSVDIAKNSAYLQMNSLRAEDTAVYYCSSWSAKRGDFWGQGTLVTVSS VL: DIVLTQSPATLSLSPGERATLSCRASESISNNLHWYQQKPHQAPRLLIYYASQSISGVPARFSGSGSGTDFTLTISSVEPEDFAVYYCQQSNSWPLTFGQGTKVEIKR
22

Provenance of the data: patent US20170240628A1
